Origin of values: patent US20260274955A1

Give measured Octet signal for each item. Keep answers brief.
- Target or system: T1, Ab-1
- T1 construct: also called anti-CD28 scFv harbored in Ab-1
- T1 sequence (heavy, as listed by the source, chain 1 of 2): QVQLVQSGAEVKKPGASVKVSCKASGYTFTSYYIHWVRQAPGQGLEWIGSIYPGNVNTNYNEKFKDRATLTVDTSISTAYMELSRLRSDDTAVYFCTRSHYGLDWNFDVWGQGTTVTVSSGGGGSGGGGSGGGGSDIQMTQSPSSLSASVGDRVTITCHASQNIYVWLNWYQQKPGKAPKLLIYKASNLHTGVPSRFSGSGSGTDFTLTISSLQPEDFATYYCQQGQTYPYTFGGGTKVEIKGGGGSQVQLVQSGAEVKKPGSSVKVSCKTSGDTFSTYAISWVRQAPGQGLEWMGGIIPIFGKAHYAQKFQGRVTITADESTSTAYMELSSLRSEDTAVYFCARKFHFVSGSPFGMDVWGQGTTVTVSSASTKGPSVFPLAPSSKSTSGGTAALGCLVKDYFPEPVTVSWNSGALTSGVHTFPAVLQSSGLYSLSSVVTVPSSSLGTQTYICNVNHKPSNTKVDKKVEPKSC
- T1 sequence (light, as listed by the source, chain 2 of 2): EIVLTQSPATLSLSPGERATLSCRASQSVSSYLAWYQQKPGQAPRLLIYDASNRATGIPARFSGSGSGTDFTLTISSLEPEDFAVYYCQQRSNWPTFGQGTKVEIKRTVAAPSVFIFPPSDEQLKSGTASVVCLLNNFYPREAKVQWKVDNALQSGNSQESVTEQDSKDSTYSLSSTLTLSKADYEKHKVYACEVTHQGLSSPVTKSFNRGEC
- Protocol text: BLI (Octet), 200 nM peptide, 100 nM Ab-1;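 note: association and dissociation phases tracked in real time, with kinetics fitted to a 1:1 interaction model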
No end group written: not given here.
Numbers only.

// input: 3 binders below; output: Octet signal for each
1. HDWCPRDLWVHCFA (cysteine pairing not given here; also: biotinylated, site not given here) [Peptide-9]
2. GDWCPRDLWVHCFA (cysteine pairing not given here; also: biotinylated, site not given here) [Peptide-8]
3. PDWCPRDLWVHCFA (cysteine pairing not given here; also: biotinylated, site not given here) [Peptide-14]

Output:
0.737
0.479
0.328
